PROCEDURE_DETAILS: Cytotoxicity: inhibition of growth of uninfected MDBK cells (TetraColor One MTT)
Type: cell-based, bovine
CONDITION_LABEL: bovine; uninfected MDBK cells, 3 days of culture, MTT readout; mean of at least two experiments
READOUT_KIND: CC50 at 3 days (µM)
All answers are understood in µM, so give the number only.

Query block: Param item = c1ccc2c(c1)[nH]c1cnccc12 ; retrieve measured CC50 at 3 days.
Result block: 87

---

Test system: Madin-Darby bovine kidney cell (MDBK cell)
PROCEDURE_DETAILS: Cytotoxicity: inhibition of growth of uninfected MDBK cells (TetraColor One MTT)
Format: cell-based
CONDITION_LABEL: read-out: CC50 (50% cytotoxicity concentration, 50% inhibition of cell growth); uninfected MDBK cells, 3 days of culture, MTT readout; mean of at least two experiments
READOUT_KIND: CC50

Query block: Param item = c1ccc2c(c1)[nH]c1ccccc12 [Carbazole, reference compound] ; retrieve measured CC50.
Result block: > 100 µM

Query block: Param item = c1ccc2c(c1)oc1ccccc12 [Dibenzofuran, reference compound] ; retrieve measured CC50.
Result block: > 100 µM

---

Please provide measured CC50 for the entries that follow.
Test system: Madin-Darby bovine kidney cell (MDBK cell)
PROCEDURE_DETAILS: Cytotoxicity: inhibition of growth of uninfected MDBK cells (TetraColor One MTT)
Type: cell-based
CONDITION_LABEL: bovine, 3 days
All answers are understood in µM, so give the number only.

Query block: Param item = Cc1ccc2[nH]c3ccncc3c2c1 [Compound 8] ; retrieve measured CC50.
Result block: 12

Query block: Param item = Cc1ccc2c(c1)[nH]c1ccncc12 [Compound 7] ; retrieve measured CC50.
Result block: 24

Query block: Param item = Cc1cc2[nH]c3ccccc3c2cn1 [Compound 3] ; retrieve measured CC50.
Result block: 70

Query block: Param item = Cc1cccc2[nH]c3ccncc3c12 [Compound 9] ; retrieve measured CC50.
Result block: 16

Query block: Param item = Cc1cncc2c1[nH]c1ccccc12 [Compound 4] ; retrieve measured CC50.
Result block: 21

Query block: Param item = Cn1c2ccccc2c2cnccc21 [Compound 5] ; retrieve measured CC50.
Result block: 29

Query block: Param item = Cn1ccc2nc3ccccc3c-2c1 [Compound 2] ; retrieve measured CC50.
Result block: 65

Query block: Param item = Cc1cccc2c1[nH]c1ccncc12 [Compound 6] ; retrieve measured CC50.
Result block: 24

Query block: Param item = Cc1nccc2[nH]c3ccccc3c12 [Compound 1] ; retrieve measured CC50.
Result block: 9.7

---

Please provide measured CC50 at 3 days for the entries that follow.
PROCEDURE_DETAILS: Cytotoxicity: inhibition of growth of uninfected MDBK cells (TetraColor One MTT)
Format: cell-based, bovine
CONDITION_LABEL: bovine
All answers are understood in µM, so give the number only.

Query block: Param item = Cc1nccc2c1c1ccccc1n2C ; retrieve measured CC50 at 3 days.
Result block: 5.2

Query block: Param item = Cc1ccc2c(c1)c1cnccc1n2C ; retrieve measured CC50 at 3 days.
Result block: 7.7

Query block: Param item = Cc1cccc2c3cnccc3n(C)c12 ; retrieve measured CC50 at 3 days.
Result block: 11

Query block: Param item = Cc1cccc2c1c1cnccc1n2C ; retrieve measured CC50 at 3 days.
Result block: 6.4

---

PROCEDURE_DETAILS: Cytotoxicity: inhibition of growth of uninfected MDBK cells (TetraColor One MTT)
Assay type: cell-based, bovine
CONDITION_LABEL: bovine
In plain terms, low CC50 at 3 days, meaning strictly below 20 µM, gives TRUE, and everything else gives FALSE.

Query block: Consider Cc1ccc2c3cnccc3n(C)c2c1 . Does its CC50 at 3 days lie strictly below 20 µM?
Result block: FALSE

Query block: Consider Cc1cncc2c3ccccc3n(C)c12 . Does its CC50 at 3 days lie strictly below 20 µM?
Result block: TRUE

Query block: Consider Cc1cc2c(cn1)c1ccccc1n2C . Does its CC50 at 3 days lie strictly below 20 µM?
Result block: FALSE

Query block: Consider NC(=O)c1ncn([C@@H]2O[C@H](CO)[C@@H](O)[C@H]2O)n1 [Ribavirin, reference compound] . Does its CC50 at 3 days lie strictly below 20 µM?
Result block: TRUE

Query block: Consider c1ccc2c(c1)[nH]c1ccncc12 . Does its CC50 at 3 days lie strictly below 20 µM?
Result block: FALSE

---

Test system: Madin-Darby bovine kidney cell (MDBK cell)
PROCEDURE_DETAILS: Cytotoxicity: inhibition of growth of uninfected MDBK cells (TetraColor One MTT)
Format: cell-based
CONDITION_LABEL: bovine, 3 days
Please provide measured CC50 for the entries that follow.

Query block: Param item = c1ccc2c(c1)[nH]c1ncccc12 [α-Carboline, reference compound] ; retrieve measured CC50.
Result block: > 100 µM

Query block: Param item = c1ccc2c(c1)[nH]c1cccnc12 [δ-Carboline, reference compound] ; retrieve measured CC50.
Result block: > 100 µM

Query block: Param item = c1ccc2c(c1)Cc1ccccc1-2 [Fluorene, reference compound] ; retrieve measured CC50.
Result block: > 100 µM
